Property: Rv90; scope: individual molecules
Test system: MUTZ-3 cells
Experiment: Cytotoxicity by propidium iodide, relative viability

molecule	Rv90 [µM]
C=O	80
O=CC=O	300
Nc1ccc(N)cc1	75
CCCCCCCCCCCCOS(=O)(=O)[O-].[Na+] [Sodium dodecyl sulphate]	200

----------
Assay: physchem
Conditions: aqueous buffer, kinetic from dmso stock

compound	u	solubility
O=Cc1ccccc1	µM	250
O=C(O)c1ccc(O)cc1 [p-Hydroxybenzoic acid]	µM	250
CCCCCCC(C=O)=Cc1ccccc1	µM	32.3
OC/C=C/c1ccccc1	µM	500
Sc1nc2ccccc2s1	µM	250

----------
Assay: Max solubility in medium
Settings: aqueous buffer, kinetic from dmso stock

structure-string	solubility
Clc1ccccc1	98 µM

Hello, the source for this data is paper PMC3176258, in case you need it.
